assay.procedure: in vivo
details: Balb/c, mouse
quantity: LD50

Recorded LD50 for CC1/C=C/C=C/C=C/C=C/C=C/C=C/C=C/C(OC2OC(C)C(O)C(N)C2O)CC2OC(O)(CC(O)CC(O)C(O)CCC(O)CC(O)CC(=O)OC(C)C(C)C1O)CC(O)C2C(=O)O (stereo not shown) , please? ~2.5 mg/kg
